B1: library; numbered along this chain (parent)
chain: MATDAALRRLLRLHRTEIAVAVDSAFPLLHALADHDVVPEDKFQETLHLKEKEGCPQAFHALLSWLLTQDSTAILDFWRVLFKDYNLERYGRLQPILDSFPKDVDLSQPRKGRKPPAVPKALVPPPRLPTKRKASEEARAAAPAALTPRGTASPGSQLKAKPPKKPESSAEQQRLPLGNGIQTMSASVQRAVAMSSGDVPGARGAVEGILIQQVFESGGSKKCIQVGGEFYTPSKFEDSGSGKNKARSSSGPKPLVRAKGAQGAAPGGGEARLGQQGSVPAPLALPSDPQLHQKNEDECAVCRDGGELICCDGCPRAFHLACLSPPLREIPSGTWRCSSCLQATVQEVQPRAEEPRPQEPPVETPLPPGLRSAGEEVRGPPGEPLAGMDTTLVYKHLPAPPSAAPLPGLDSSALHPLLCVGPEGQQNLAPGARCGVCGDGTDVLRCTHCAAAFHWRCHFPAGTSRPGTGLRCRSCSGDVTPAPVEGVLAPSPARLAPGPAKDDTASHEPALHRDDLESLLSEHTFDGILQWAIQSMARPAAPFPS

variants of: B1; assay: AIRE transcriptional activation functional score (insulin promoter-GFP; nonsense median 0, synonymous median 1) (normalised score); higher = higher AIRE activity (more reporter activation); settings: with insulin promoter-GFP reporter in HEK293
Lab note: anything with AIRE transcriptional activation functional score at or over 0.9 counts as true; the rest go in false.

INSERT INTO assay_data (variant_spec, class_assignment) VALUES
  ('K133W', 'false');

Quick check: does E229A have AIRE transcriptional activation functional score greater than or equal to 0.9?
false

Quick check: does Q290P have AIRE transcriptional activation functional score greater than or equal to 0.9?
false

Quick check: does E51F have AIRE transcriptional activation functional score greater than or equal to 0.9?
false
